Test system: carbapenemase producing K. pneumoniae
Assay text: MIC by broth micro-dilution (CLSI), carbapenemase producing K. pneumoniae
Format: cell-based, Klebsiella pneumoniae
Conditions: Klebsiella pneumoniae, ATCCBAA1705, KPC-2 K. pneumoniae ATCC BAA-1705; read-out: MIC
Value type: MIC (µg/mL)

I: C[C@@H](NC(=O)Cn1cnnn1)[C@H]1C(=O)N2C(C(=O)O)=C(S[C@@H]3CN[C@H](C(=O)N4CC5CCNC5C4)C3)[C@H](C)[C@H]12 (stereo partly drawn)
II: CNCC(=O)N[C@H](C)[C@H]1C(=O)N2C(C(=O)O)=C(S[C@@H]3CN[C@H](C(=O)N4C[C@@H](N)[C@H](O)C4)C3)[C@H](C)[C@H]12
// pick min by MIC: I , II // caller expects the label of the chosen entry
I

Measured values drawn from patent US11180504B2 for this set.
